We begin with a simple list: items and their reported d (v, 0.1).
- assayRemarks: Particle size distribution of micronised BDP by laser diffraction (Malvern)
- Type: physicochemical
- measurementContext: micronised beclometasone dipropionate; volume diameter of 10% of particles

# molecule, d (v, 0.1) (μm)
measured = [
    ("CCC(=O)OCC(=O)[C@@]1(OC(=O)CC)[C@@H](C)C[C@H]2[C@@H]3CCC4=CC(=O)C=C[C@]4(C)[C@@]3(Cl)[C@@H](O)C[C@@]21C [Batch 1, beclometasone dipropionate]", 0.86),
    ("CCC(=O)OCC(=O)[C@@]1(OC(=O)CC)[C@@H](C)C[C@H]2[C@@H]3CCC4=CC(=O)C=C[C@]4(C)[C@@]3(Cl)[C@@H](O)C[C@@]21C [Batch 3, beclometasone dipropionate]", 0.95),
    ("CCC(=O)OCC(=O)[C@@]1(OC(=O)CC)[C@@H](C)C[C@H]2[C@@H]3CCC4=CC(=O)C=C[C@]4(C)[C@@]3(Cl)[C@@H](O)C[C@@]21C [Batch 2, beclometasone dipropionate]", 0.96),
    ("CCC(=O)OCC(=O)[C@@]1(OC(=O)CC)[C@@H](C)C[C@H]2[C@@H]3CCC4=CC(=O)C=C[C@]4(C)[C@@]3(Cl)[C@@H](O)C[C@@]21C [Batch 4, beclometasone dipropionate]", 0.91),
]
